- Test system: Mycobacterium tuberculosis
- experiment: Antibacterial activity against Mycobacterium tuberculosis TN1618 (P)
- Assay type: functional

{"compound": "C[C@H](N)C(=O)N(C)[C@@H](C)[C@H](NC(=O)[C@H](Cc1ccc(C(F)(F)F)cc1)NC(=O)N[C@@H](Cc1c[nH]c2ccccc12)C(=O)O)C(=O)NC[C@H]1C[C@@H](O)[C@H](n2ccc(=O)[nH]c2=O)O1", "MIC": "8 µg/mL"}
{"compound": "CSCC[C@H](NC(=O)N[C@@H](Cc1ccc(O)cc1)C(=O)O)C(=O)N[C@H](C(=O)NC[C@H]1C[C@@H](O)[C@H](n2ccc(=O)[nH]c2=O)O1)[C@H](C)N(C)C(=O)[C@H](C)N", "MIC": "> 30 µg/mL"}
{"compound": "CC(C)C[C@H](NC(=O)N[C@@H](Cc1c[nH]c2ccccc12)C(=O)O)C(=O)N[C@H](C(=O)NC[C@H]1C[C@@H](O)[C@H](n2ccc(=O)[nH]c2=O)O1)[C@H](C)N(C)C(=O)CN", "MIC": "> 30 µg/mL"}
{"compound": "C[C@H](N)C(=O)N(C)[C@@H](C)[C@H](NC(=O)[C@H](Cc1ccc(F)cc1)NC(=O)N[C@@H](Cc1ccc(O)cc1)C(=O)O)C(=O)NC[C@H]1C[C@@H](O)[C@H](n2ccc(=O)[nH]c2=O)O1", "MIC": "10 µg/mL"}
{"compound": "C[C@H](NC(=O)N[C@@H](Cc1c[nH]c2ccccc12)C(=O)O)C(=O)N[C@H](C(=O)NC[C@H]1C[C@@H](O)[C@H](n2ccc(=O)[nH]c2=O)O1)[C@H](C)N(C)C(=O)[C@@H](N)Cc1ccc(O)cc1 [PACIDAMYCIN]", "MIC": "> 30 µg/mL"}

Just for reference, ChEMBL document CHEMBL1136243 is where these values come from.
